Tested on: COLO 205 colon
protocol-summary: NCI-60 one-dose screen, 48 h
condition-summary: 10 µM
The panel holds about 83,000 compounds, 20% with a hit somewhere; the sample as a whole holds those more often. Active and inactive are the calls of the source. How the source made its calls: active means growth percent below 10; inactive means the rest.
Possible outcomes: YES (active), NO (inactive)

CN1C(=O)[C@]23SSC1(C)C(=O)N2[C@H]1Nc2ccccc2C1([C@@]12c4ccccc4N[C@@H]1N1C(=O)C4(C)SS[C@]1(C(=O)N4C)[C@H]2O)[C@@H]3O (some centres undefined)    YES
CC1=C2C(=C[C@@](C)(COS(C)(=O)=O)[C@@H]2O)C(=O)[C@](C)(O)C12CC2    YES
CC1=C[C@H]2O[C@@H]3C[C@H]4OC(=O)/C=C\C=C\[C@H]([C@@H](C)O)OCC/C(C)=C/C(=O)OC[C@@]2(CC1)[C@]4(C)[C@]31CO1    YES
Cc1ccc(CNc2nc3ccc(OC/C(=C/F)CN)cc3o2)cn1    NO

###

System: HL-60(TB) leukemia
protocol-summary: NCI-60 one-dose screen, 48 h (100 = growth as untreated, 0 = no growth, -100 = all killed)
condition-summary: 10 µM unless noted
Experimental: Growth inhibition of the HL-60(TB) human tumor cell line is measured as a screen for anti-cancer activity. Cells are grown in 96 well plates and exposed to the test compound for 48 hours. Compounds are tested at a single concentration, which is 10^-5 M for most compounds. The reported endpoint is percent growth (GI% or GIPRCNT), where numbers from 0 - 100% represent growth inhibition, and numbers from -100% - 0 represent cell death. For example, a value of 40 represents 60% growth inhibition. […]
This is part of a sample that, as a whole, favours compounds with a hit. Of some 83,000 tested, about 20% had one in any assay.
property: growth (%)

CCN1CCN(/C(=N\c2sc(-c3ccccc3)nc2-c2ccccc2)c2ccccc2)CC1    50.9
COc1ccc2[nH]cc(-c3csc4nc(-c5ccccc5)cn34)c2c1    13.9
O=C(Oc1ccc2ccc(=O)oc2c1)c1ccc(Cl)cc1    106
COc1cc(/C=C/C(=O)c2ccc(NC(=O)CSc3nnc(-c4ccc5nc(-c6ccccc6)[nH]c5c4)o3)cc2)cc(OC)c1OC    69
COc1ccc(/C=N/Nc2nc(N/N=C/c3ccc(OC)cc3O)nc(N3CCOCC3)n2)c(O)c1    30.9

###

System: SK-OV-3 ovarian
protocol-summary: NCI-60 one-dose screen, 48 h
condition-summary: 10 µM
Compounds without any hit were thinned out: in the full panel of roughly 83,000, 20% have a hit. Activity calls are given as the source filed them. How the source made its calls: active means growth percent below 10; inactive means the rest.
Labels: active, inactive

CC1=C(CN(O)C(N)=O)C2=C(C)C3(CC3)[C@@](C)(O)C(=O)C2=C1    active
C=C1[C@@H](C)C2[C@H](Cc3ccccc3)NC(=O)[C@]23[C@H](OC(C)=O)/C=C/[C@@](C)(O)C(=O)[C@@H](C)C/C=C/[C@H]3[C@@H]1O (stereo partly drawn)    inactive
COc1cc2c(O[C@@H]3OC[C@H](O)[C@H](O)[C@H]3O)c3c(c(-c4ccc5c(c4)OCO5)c2cc1OC)C(=O)OC3    inactive
N#Cc1c(-n2c(Br)c(Br)c3cc(Br)ccc32)[nH]c2c(Br)cc(Br)cc12    active
C[C@@H]1C[C@H]2C(=O)O[C@@H](C)C(NC(=O)[C@H](Cc3cc(F)cc(F)c3)NC(=O)Nc3ccc(OS(=O)(=O)F)cc3)C(=O)N3CCC[C@H]3C(=O)N3CCO[C@H](C)[C@H]3C(=O)N[C@@H](CO)C(=O)N2C1 (stereo partly drawn)    inactive
CC1=C(CN(O)C(N)=O)C2=C(C)C3(CC3)[C@](C)(O)C(=O)C2=C1    inactive
COc1cc(OC)c(S(=O)(=O)N(CCCl)CCCl)cc1C(=O)/C=C/c1ccc(Cl)cc1    inactive
CC1=C2C(=C[C@@](C)(COS(C)(=O)=O)[C@@H]2O)C(=O)[C@](C)(O)C12CC2    active
